Data origin: ChEMBL document CHEMBL1201862

test system: K562; assay: NCI tumour cell line growth inhibition, 48 h
Calls of active or inactive are those of the source. No stated cut-off is given here; in the data, active = GI50 up to about 1.1 µM and inactive = higher.
Each entry below carries its recorded GI50.
experimental_readout: GI50

{"molecule": "O=C(O)C[C@H]1CCCCC12CCOC2=O (stereo partly drawn)", "meas_value": "> 100 µM (inactive)"}
{"molecule": "O=c1c2ccccc2c(=O)n2n1CC=CC2", "meas_value": "> 100 µM (inactive)"}
{"molecule": "CC(C)(C)c1ccc(-c2nnc(SCc3ccc(Cl)cc3)n2-c2cccc(C(F)(F)F)c2)cc1", "meas_value": "4.25 µM (inactive)"}

---

tested on: ACHN; test: NCI tumour cell line growth inhibition, 48 h
Activity calls are given as the source filed them. No stated cut-off is given here; in the data, active = GI50 up to about 1.1 µM and inactive = higher.
experimental_readout: GI50

{"molecule": "CCOC(=O)c1csc(NC(=O)CN2CCCCC2)n1", "meas_value": "> 100 µM (inactive)"}
{"molecule": "CC(C)[Si](OCC1CC(C#N)OC(C)(C)O1)(C(C)C)C(C)C (stereo not given)", "meas_value": "16 µM (inactive)"}
{"molecule": "Nc1nc(O)c2nc(N)n(Cc3ccccc3)c2n1", "meas_value": "> 100 µM (inactive)"}
{"molecule": "O=C1c2c(c3c4ccccc4n4c3c3c2c2ccccc2n3C/C=C\\C4)C(=O)N1Cc1ccccc1", "meas_value": "> 100 µM (inactive)"}
{"molecule": "O=C(O)C/C=C/CC(=O)O", "meas_value": "> 100 µM (inactive)"}
